- Test system: A-427
- Assay overview: relative viability (nuclei count vs DMSO), 5 days (fraction); higher = more cells survive
- Particulars: first compound 0.006325 µM
Experimental endpoint: relative viability
Please respond with just the number, no unit label.

Answered examples (3):
| Molecule | Experimental value |
| --- | --- |
| CCNC(=O)c1noc(-c2cc(C(C)C)c(O)cc2O)c1-c1ccc(CN2CCOCC2)cc1 [Luminespib] + CS(=O)(=O)N1CCN(Cc2cc3nc(-c4cccc5[nH]ncc45)nc(N4CCOCC4)c3s2)CC1 [Pictilisib] (partner 1 µM) | 0.634 |
| CCNC(=O)c1noc(-c2cc(C(C)C)c(O)cc2O)c1-c1ccc(CN2CCOCC2)cc1 [Luminespib] + C[C@@H](Oc1cc(-c2cnn(C3CCNCC3)c2)cnc1N)c1c(Cl)ccc(F)c1Cl [Crizotinib] (partner 1 µM) | 0.796 |
| CCNC(=O)c1noc(-c2cc(C(C)C)c(O)cc2O)c1-c1ccc(CN2CCOCC2)cc1 [Luminespib] + Nc1ncn([C@H]2C[C@H](O)[C@@H](CO)O2)c(=O)n1 [Decitabine] (partner 2 µM) | 0.514 |

Okay, now this molecule:
Requested read-out: relative viability. Entry: CCNC(=O)c1noc(-c2cc(C(C)C)c(O)cc2O)c1-c1ccc(CN2CCOCC2)cc1 [Luminespib] + CC(=O)Nc1cccc(-n2c(=O)n(C3CC3)c(=O)c3c(Nc4ccc(I)cc4F)n(C)c(=O)c(C)c32)c1 [Trametinib] (partner 0.02 µM) 0.74

* * *

List of relative viability values.
- System: NCI-H23
- Assay overview: relative viability (nuclei count vs DMSO), 5 days (fraction); higher = more cells survive
- Particulars: first compound 0.02 µM
Please respond with just the number, no unit label.

| Compound | Measurement target | Experimental value |
| --- | --- | --- |
| CN1CCN(CCOc2cc(OC3CCOCC3)c3c(Nc4c(Cl)ccc5c4OCO5)ncnc3c2)CC1 [Saracatinib] + CS(=O)(=O)CCNCc1ccc(-c2ccc3ncnc(Nc4ccc(OCc5cccc(F)c5)c(Cl)c4)c3c2)o1 [Lapatinib] (partner 2 µM) | NCI-H23 | 1.13 |

Okay, now this compound:
Requested read-out: relative viability. Entry: CCNC(=O)c1noc(-c2cc(C(C)C)c(O)cc2O)c1-c1ccc(CN2CCOCC2)cc1 [Luminespib] + NC(=O)Nc1cc(-c2cccc(F)c2)sc1C(=O)N[C@H]1CCCNC1 [AZD7762] (partner 0.2 µM) 0.259

* * *

List of relative viability values.
- Tested on: NCI-H2023
- Assay overview: relative viability (nuclei count vs DMSO), 5 days (fraction); higher = more cells survive
- Particulars: first compound 0.003162 µM
Please respond with just the number, no unit label.

Answered examples (5):
| Molecule | Measurement target | relative viability |
| --- | --- | --- |
| Cc1cn(-c2cc(NC(=O)c3ccc(C)c(Nc4nccc(-c5cccnc5)n4)c3)cc(C(F)(F)F)c2)cn1 [Nilotinib] + CCNC(=O)c1noc(-c2cc(C(C)C)c(O)cc2O)c1-c1ccc(CN2CCOCC2)cc1 [Luminespib] (partner 0.01 µM) | NCI-H2023 | 0.89 |
| Cc1cn(-c2cc(NC(=O)c3ccc(C)c(Nc4nccc(-c5cccnc5)n4)c3)cc(C(F)(F)F)c2)cn1 [Nilotinib] + C[C@]1(O)C[C@@H](c2nc(-c3ccc4ccc(-c5ccccc5)nc4c3)c3c(N)nccn32)C1 [Linsitinib] (partner 1 µM) | NCI-H2023 | 0.735 |
| Cc1cn(-c2cc(NC(=O)c3ccc(C)c(Nc4nccc(-c5cccnc5)n4)c3)cc(C(F)(F)F)c2)cn1 [Nilotinib] + Cc1nc(Nc2ncc(C(=O)Nc3c(C)cccc3Cl)s2)cc(N2CCN(CCO)CC2)n1 [Dasatinib] (partner 0.075 µM) | NCI-H2023 | 0.569 |
| Cc1cn(-c2cc(NC(=O)c3ccc(C)c(Nc4nccc(-c5cccnc5)n4)c3)cc(C(F)(F)F)c2)cn1 [Nilotinib] + O=C(c1cc(Cc2n[nH]c(=O)c3ccccc23)ccc1F)N1CCN(C(=O)C2CC2)CC1 [Olaparib] (partner 8 µM) | NCI-H2023 | 0.486 |
| Cc1cn(-c2cc(NC(=O)c3ccc(C)c(Nc4nccc(-c5cccnc5)n4)c3)cc(C(F)(F)F)c2)cn1 [Nilotinib] + CC(=O)Nc1cccc(-n2c(=O)n(C3CC3)c(=O)c3c(Nc4ccc(I)cc4F)n(C)c(=O)c(C)c32)c1 [Trametinib] (partner 0.02 µM) | NCI-H2023 | 0.619 |

Okay, now this molecule:
Requested read-out: relative viability. Entry: Cc1cn(-c2cc(NC(=O)c3ccc(C)c(Nc4nccc(-c5cccnc5)n4)c3)cc(C(F)(F)F)c2)cn1 [Nilotinib] + O=C(CCCCCCC(=O)Nc1ccccc1)NO [Vorinostat] (partner 1 µM) 0.455

* * *

- Tested on: LCLC-97TM1
- Assay overview: relative viability (nuclei count vs DMSO), 5 days (fraction); higher = more cells survive
- Particulars: first compound 0.6325 µM
Experimental endpoint: relative viability
Please respond with just the number, no unit label.

Answered examples (5):
| Compound | relative viability |
| --- | --- |
| CN1CCN(CCOc2cc(OC3CCOCC3)c3c(Nc4c(Cl)ccc5c4OCO5)ncnc3c2)CC1 [Saracatinib] + O=C(c1cc(Cc2n[nH]c(=O)c3ccccc23)ccc1F)N1CCN(C(=O)C2CC2)CC1 [Olaparib] (partner 8 µM) | 0.567 |
| Cc1csc(=NC2CCCCC2)n1/N=C/c1ccc(O)c(O)c1O [MIM1] + O=C(c1cc(Cc2n[nH]c(=O)c3ccccc23)ccc1F)N1CCN(C(=O)C2CC2)CC1 [Olaparib] (partner 8 µM) | 0.46 |
| CN1CCN(CCOc2cc(OC3CCOCC3)c3c(Nc4c(Cl)ccc5c4OCO5)ncnc3c2)CC1 [Saracatinib] + CC(=O)c1c(C)c2cnc(Nc3ccc(N4CCNCC4)cn3)nc2n(C2CCCC2)c1=O [Palbociclib] (partner 0.5 µM) | 0.281 |
| Cc1csc(=NC2CCCCC2)n1/N=C/c1ccc(O)c(O)c1O [MIM1] + O=C(CCCCCCC(=O)Nc1ccccc1)NO [Vorinostat] (partner 1 µM) | 0.23 |
| Cc1csc(=NC2CCCCC2)n1/N=C/c1ccc(O)c(O)c1O [MIM1] + COc1cccc2cc(-c3nc([C@H]4CC[C@H](C(=O)O)CC4)n4ncnc(N)c34)[nH]c12 [OSI-027] (partner 0.5 µM) | 0.455 |

Short answer please: relative viability, LCLC-97TM1, entry CN1CCN(CCOc2cc(OC3CCOCC3)c3c(Nc4c(Cl)ccc5c4OCO5)ncnc3c2)CC1 [Saracatinib] + C[C@]1(O)C[C@@H](c2nc(-c3ccc4ccc(-c5ccccc5)nc4c3)c3c(N)nccn32)C1 [Linsitinib] (partner 1 µM) 0.197

One more compound: Cc1csc(=NC2CCCCC2)n1/N=C/c1ccc(O)c(O)c1O [MIM1] + Nc1ncn([C@H]2C[C@H](O)[C@@H](CO)O2)c(=O)n1 [Decitabine] (partner 2 µM) 0.238

One more compound: CN1CCN(CCOc2cc(OC3CCOCC3)c3c(Nc4c(Cl)ccc5c4OCO5)ncnc3c2)CC1 [Saracatinib] + CC1(C)CCC(c2ccc(Cl)cc2)=C(CN2CCN(c3ccc(C(=O)NS(=O)(=O)c4ccc(N[C@H](CCN5CCOCC5)CSc5ccccc5)c(S(=O)(=O)C(F)(F)F)c4)cc3)CC2)C1 [Navitoclax] (partner 0.5 µM) 0.501

One more compound: Cc1csc(=NC2CCCCC2)n1/N=C/c1ccc(O)c(O)c1O [MIM1] + Cc1cc(Nc2cc(N3CCN(C)CC3)nc(Sc3ccc(NC(=O)C4CC4)cc3)n2)n[nH]1 [Tozasertib] (partner 0.1 µM) 0.237

* * *

- System: NCI-H441
- Assay overview: relative viability (nuclei count vs DMSO), 5 days (fraction); higher = more cells survive
- Particulars: first compound 8 µM
Experimental endpoint: relative viability
Please respond with just the number, no unit label.

| Compound | relative viability |
| --- | --- |
| Nc1cccc2c1CN(C1CCC(=O)NC1=O)C2=O (stereo not given) [Lenalidomide] + Nc1ncn([C@H]2C[C@H](O)[C@@H](CO)O2)c(=O)n1 [Decitabine] (partner 2 µM) | 0.262 |

Requested read-out: relative viability. Entry: Nc1cccc2c1CN(C1CCC(=O)NC1=O)C2=O (stereo not given) [Lenalidomide] + COc1cccc2cc(-c3nc([C@H]4CC[C@H](C(=O)O)CC4)n4ncnc(N)c34)[nH]c12 [OSI-027] (partner 0.5 µM) 0.631

One more compound: Nc1cccc2c1CN(C1CCC(=O)NC1=O)C2=O (stereo not given) [Lenalidomide] + NC(=O)Nc1cc(-c2cccc(F)c2)sc1C(=O)N[C@H]1CCCNC1 [AZD7762] (partner 0.2 µM) 1.26

One more compound: Nc1cccc2c1CN(C1CCC(=O)NC1=O)C2=O (stereo not given) [Lenalidomide] + C[C@]1(O)C[C@@H](c2nc(-c3ccc4ccc(-c5ccccc5)nc4c3)c3c(N)nccn32)C1 [Linsitinib] (partner 1 µM) 0.555

One more compound: Nc1cccc2c1CN(C1CCC(=O)NC1=O)C2=O (stereo not given) [Lenalidomide] + CC(=O)c1c(C)c2cnc(Nc3ccc(N4CCNCC4)cn3)nc2n(C2CCCC2)c1=O [Palbociclib] (partner 0.5 µM) 0.202

These measurements were taken from the supplement of paper PMC10307832.
